Experiment: LD50 value, oral, mice
Details: mouse, in vivo, p.o., ten mice per group
measuredAttribute: LD50 (mg/kg)
The answer is to be given in mg/kg; state only the numeric part.

Which value of LD50 has been reported for CNC(=O)Oc1ccc2c(c1)[C@]1(C)CCN(C)[C@@H]1N2C [Physostigmine, physostigmine, reference compound] in the records?
2.6

Now consider `CCN(CCCCCN1C(=O)c2ccc([N+](=O)[O-])cc2C1=O)Cc1ccccc1` and answer again.
300

---

Target: Acetylcholinesterase (Rattus norvegicus)
Construct: the S1 fraction of a male Wistar rat cerebral cortex homogenate was used as a cholinesterase source; from tissue; host or cells: male Wistar rat cerebral cortex homogenate, S1 fraction
Sequence (P37136 32-614): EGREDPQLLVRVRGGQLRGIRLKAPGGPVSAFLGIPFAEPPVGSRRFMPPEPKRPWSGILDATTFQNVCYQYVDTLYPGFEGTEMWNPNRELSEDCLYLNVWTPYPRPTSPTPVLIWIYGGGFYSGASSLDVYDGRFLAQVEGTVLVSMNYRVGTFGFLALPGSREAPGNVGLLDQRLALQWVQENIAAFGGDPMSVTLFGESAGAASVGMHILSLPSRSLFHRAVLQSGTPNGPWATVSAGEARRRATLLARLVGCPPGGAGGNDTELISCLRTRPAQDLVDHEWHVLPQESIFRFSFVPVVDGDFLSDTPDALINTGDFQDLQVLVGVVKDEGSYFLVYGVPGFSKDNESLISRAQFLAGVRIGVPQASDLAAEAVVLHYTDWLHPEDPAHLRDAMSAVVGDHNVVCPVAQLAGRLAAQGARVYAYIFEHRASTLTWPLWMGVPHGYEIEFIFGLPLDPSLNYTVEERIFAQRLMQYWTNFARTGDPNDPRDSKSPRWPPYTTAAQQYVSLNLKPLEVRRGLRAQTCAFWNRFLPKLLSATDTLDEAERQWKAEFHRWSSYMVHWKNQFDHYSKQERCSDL
Assay: Acetylcholinesterase inhibiting activity using (acetyl-[3H])-acetylcholine, S1 fraction of rat cerebral cortex homogenate
Format: biochemical, male Wistar rat
Details: rat cerebral cortex homogenate S1 fraction; 30 minutes of incubation; read-out: Acetylcholinesterase inhibiting activity IC50
Structures can show the parent of a compound that is named as a salt.
measuredAttribute: pIC50
pIC50 here is simply -log10 of the concentration when that concentration is written in mol/L.

Reported pIC50 for Acetylcholinesterase (Rattus norvegicus), given `CCN(CCCCCN(C(C)=O)C(=O)/C=C/c1cccc([N+](=O)[O-])c1)Cc1ccccc1` ?
6.28

One more compound: `CCN(CCCCCN(C(C)=O)C(=O)/C=C/c1ccc([N+](=O)[O-])c(OC(C)=O)c1)Cc1ccccc1`
6.55

What about this compound? `CCN(CCCCCN1C(=O)c2ccc(O)cc2C1=O)Cc1ccccc1`
5.60

Then `CCN(CCCCCNC(=O)/C=C/c1ccc(OC)cc1)Cc1ccccc1` ?
4.80

Item: `CC(C)N(CCCCN1C(=O)c2ccc([N+](=O)[O-])cc2C1=O)Cc1ccccc1`
6.31

Also `CCN(CCCCCN1C(=O)c2ccc([N+](=O)[O-])cc2C1=O)Cc1cccc(OC)c1OC` , if possible.
6.57

Next entry: `CN(CCCCCCCN1C(=O)c2ccc([N+](=O)[O-])cc2C1=O)Cc1ccccc1`
5.74

Same read-out for `CN(CCCCN1C(=O)c2ccc(NS(=O)(=O)Cc3ccccc3)cc2C1=O)Cc1ccccc1` ?
5.04

Next compound up: `CCN(CCCCCNC(=O)/C=C/c1ccc(O)cc1)Cc1ccccc1`
4.89

And then `CCN(CCCCCN(C(C)=O)C(=O)/C=C/c1ccc([N+](=O)[O-])cc1)Cc1ccccc1` , what is it?
6.25

Item: `CCN(CCCCCN1C(=O)c2ccc([N+](=O)[O-])cc2C1=O)Cc1ccccc1OC`
7.55

Let us now turn to `CN(CCCCNC(=O)/C=C/c1cccc([N+](=O)[O-])c1)Cc1ccccc1`
4.89

Same question for `CCN(CCCCCN(C(C)=O)C(=O)/C=C/c1ccc(Cl)c([N+](=O)[O-])c1)Cc1ccccc1` please.
6.39

Try this compound next: `CCN(CCCCCN1C(=O)c2ccc(NS(C)(=O)=O)cc2C1=O)Cc1ccccc1`
6.33

Same thing, different compound: `CCN(CCCCCNC(=O)/C=C/c1ccc(C)cc1)Cc1ccccc1`
4.80

Okay, and `CCN(CCCCCNC(=O)/C=C/c1cc(OC)c(OC)c(OC)c1)Cc1ccccc1` ?
5.39

Can you handle `CCN(CCCCCN1C(=O)c2ccc(OC(C)=O)cc2C1=O)Cc1ccccc1` next?
5.68

Also `CCN(CCCCCNC(=O)/C=C/c1ccc(Cl)c([N+](=O)[O-])c1)Cc1ccccc1` ?
5.72

Now this one: `O=C1c2ccc([N+](=O)[O-])cc2C(=O)N1CCCCNCc1cccc2ccccc12`
5.54

Next entry: `CCN(CCCCCN1C(=O)c2ccc(C(=O)N(CC)CC)cc2C1=O)Cc1ccccc1`
6.01

Lookup `CCN(CCCCCN1C(=O)c2ccc([N+](=O)[O-])cc2C1=O)Cc1cccc(OC)c1`
7.35

Also, `CCN(CCCCCNC(=O)/C=C/c1ccc(OC)c(OC)c1)Cc1ccccc1OC` please.
6.37

Continue with CCN(CCCCCN1C(=O)c2ccc(C(=O)OC)cc2C1=O)Cc1ccccc1 [Compound 13, hydrochloride]
6.24

Try this compound too: `CCN(CCCCCN(C(C)=O)C(=O)/C=C/c1cccc(OC)c1)Cc1ccccc1`
5.24

Now this one: `CN(CCCCCN1C(=O)c2ccc([N+](=O)[O-])cc2C1=O)Cc1ccccc1`
5.85

Next: `CCN(CCCCCCCNC(=O)/C=C/c1ccc([N+](=O)[O-])cc1)Cc1ccccc1`
4.82

Entry to check: `CCC(=O)N(CCCCCN(CC)Cc1ccccc1)C(=O)/C=C/c1ccc([N+](=O)[O-])cc1`
5.37

Likewise for `CCCN(CCCCN1C(=O)c2ccc([N+](=O)[O-])cc2C1=O)Cc1ccccc1` ?
5.72

Try this compound too: `CCN(CCCCCN(C(C)=O)C(=O)/C=C/c1ccc([N+](=O)[O-])c(O)c1)Cc1ccccc1`
6.46

Now consider `CCN(CCCCCNC(=O)/C=C/c1ccc(Cl)c([N+](=O)[O-])c1)Cc1ccccc1OC` .
6.66

Same lookup for `Cc1ccc(S(=O)(=O)Nc2ccc3c(c2)C(=O)N(CCCCN(C)Cc2ccccc2)C3=O)cc1` , please.
4.43

Next compound up: `CCN(CCCCCN1C(=O)c2ccc([N+](=O)[O-])cc2C1=O)Cc1ccc(C)cc1`
6.43

Now try `CCN(CCCCCN(C(C)=O)C(=O)/C=C/c1ccc(S(C)(=O)=O)cc1)Cc1ccccc1` .
6.77
